Test system: D54 LucT luciferase reporter counterscreen, luminescence, 24 h
Assay: reporter signal increase, D54 LucT cells – cell-based, luminescence, cherry pick, counter-screen for N-linked glycosylation inhibitor project, dose response (AID 624404)
Records with an inconclusive call do not appear. The source made the active and inactive calls.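 How the source made its calls: active means luciferase signal rise whose fitted curve crosses a set activity limit at or below the top valid tested dose; inconclusive means flat fit with 30 to 70% rise, or poor fit; inactive means signal falling, flat within 30%, or crossing above top dose.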
Possible outcomes: active, inactive

| molecule | answer-label |
| --- | --- |
| O=C(COc1ccc(/C=N/NC(=O)c2cc3ccccc3o2)cc1Br)Nc1ccccc1 | active |
| CCOC(=O)c1[nH]c2c(c1-c1ccccc1)C(=O)CC(c1ccccc1)C2 (stereo unspecified) | active |
| O=C(N/N=C/c1ccc(Cl)cc1)c1sccc1OCc1ccc(F)cc1 | active |
| Cc1ccc(C(=O)Nc2ccccc2C(=O)N2CC(C)OC(C)C2)cc1 (stereo unspecified) | active |
| CCc1ccc(/C=N/NC(=O)c2nnn(-c3nonc3N)c2C(C)C)cc1 | active |
| COc1cc2c(cc1OC)C(=O)N1[C@H]3c4cc(C)ccc4OC[C@@H]3[C@H](c3ccccc3)[C@]1(C)C(=O)N2 | active |
| CC(=O)N1CCc2c(sc(NC(=O)c3ccc4c(c3)OCCO4)c2C#N)C1 | active |
| CC(C)(C)S(=O)N1Cc2cc(C(=O)NCC(F)(F)F)nc(-c3cccc(-c4cccc(F)c4)c3)c2[C@@H]1CCO (stereo partly specified) | active |
| CC(CCc1ccco1)NC(=O)CCc1nnc2ccc(NCc3ccc(Cl)cc3)nn12 (stereo unspecified) | active |
| O=C(CCl)Nc1cc(S(=O)(=O)N2CCCCCC2)ccc1Cl | active |
| CCN(CC)c1ccc(/C=N\NC(=O)c2cccc3cc[nH]c23)cc1 | active |
| Cc1cc(NCCN2CCOCC2)c2ccc3ccccc3c2n1 | active |
| O=C(NC1CCCCC1)c1cccc2c1C(=O)c1ccc(-c3ccc(OC(F)(F)F)cc3)cc1S2(=O)=O | active |
| Cc1[nH]c2ccccc2c1/C=N/NC(=O)c1cc(-c2ccncc2)nc2ccccc12 | active |
| COc1ccc(NC(=O)c2cc(S(=O)(=O)N(C)C)ccc2N2CCCC2)cc1Cl | inactive |
| COc1ccc2nc3ccccc3nc2c1NC(=O)c1ccccc1Cl | active |
| COc1ccc2c(c1)OC[C@H]1[C@H]2N2C(=O)c3cc(Br)ccc3NC(=O)[C@@]2(C)[C@H]1c1ccccc1 | active |
| Cc1ccc2c(CC(=O)NCc3ccco3)coc2c1C | active |
| COc1cccc(C(=O)Nc2ncc3c(n2)CC(c2ccc(OC)cc2OC)CC3=O)c1 (stereo unspecified) | active |
| Cc1ccc(/C=N/NC(=O)c2sccc2OCc2ccc(F)cc2)cc1 | active |
| COc1ccc(Cl)cc1S(=O)(=O)Nc1ccc2c(c1)n(C)c(=O)n2C | active |

Numbers sourced from PubChem BioAssay AID624404.
